# experiment_description: Identification of proteins required for the processing of the EWS-FLI1 nascent transcript;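 note: robust z of luciferase light less the median z of siRNAs with the same seed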
# condition_summary: TC32 Ewing sarcoma NR0B1-luc vs CMV-luc (EWS-FLI1 target promoter against control promoter), 48 h; screened at 20 nM (by protocol)
The full ranking holds about 59,000 sequences; the median of the read-out is about -0.00055, and the lowest 2% start at about -2. The sample as a whole holds a higher share of the lowest values than the screen did.
Recorded seed-corrected z-score for the following sequences
Lab note: record the figure alone, no unit after it.

| seq | seed-corrected z-score |
| --- | --- |
| AUUCUUAUCCCAGCGGAGC against PGM2L1 | 0.162 |
| UUACUUAGUCUUGUGGUGG against HIST1H2AJ | 0.917 |
| ACCUCCAAAAUUUCACUGC against ZSCAN10 | 0.616 |
| ACACUGUAAAGCUCGGUGC against LARP1 | 0.106 |
| UUCUGAUUCCCAAACAGUG against COMMD8 | -1.88 |
| UGAAGAGUAAGCUCAAACC against ASIC5 | -3.53 |
| AUAGGGUUUUACAUGAGGC against MYLK | -0.272 |
| UGAAAUUCCCGUAGAGUUC against CA11 | -0.176 |
| AAAAGGUAAACAGUGCUGG against HCAR1 | -2.61 |
| UCUGAAUCCACUAACACUG against TMEM87B | -0.0559 |

Please report the recorded seed-corrected z-score for UGAGUUUCGCGCUCUCUCC against SLC17A7 .
-2.93

Can you handle UCAACAUUAGGUUUCUUAG against TAF9B next?
0.431

Can you handle UUGAGUCCAAUGUCCACUC against TBC1D9B next?
-0.454

Can you handle AUAGUUCGGAUCACAAUGC against NPSR1 next?
0.18

Can you handle UCCUGAACAGGCUUAUCCC against AXIN1 next?
0.946

Can you handle AAAGUAUCGGUAUUUGUCU against NDUFB9 next?
0.025
